- experimental target: SLO-1 (Glycine max, UniProt P08170)
- Construct: made in house
- Sequence (P08170 whole entry): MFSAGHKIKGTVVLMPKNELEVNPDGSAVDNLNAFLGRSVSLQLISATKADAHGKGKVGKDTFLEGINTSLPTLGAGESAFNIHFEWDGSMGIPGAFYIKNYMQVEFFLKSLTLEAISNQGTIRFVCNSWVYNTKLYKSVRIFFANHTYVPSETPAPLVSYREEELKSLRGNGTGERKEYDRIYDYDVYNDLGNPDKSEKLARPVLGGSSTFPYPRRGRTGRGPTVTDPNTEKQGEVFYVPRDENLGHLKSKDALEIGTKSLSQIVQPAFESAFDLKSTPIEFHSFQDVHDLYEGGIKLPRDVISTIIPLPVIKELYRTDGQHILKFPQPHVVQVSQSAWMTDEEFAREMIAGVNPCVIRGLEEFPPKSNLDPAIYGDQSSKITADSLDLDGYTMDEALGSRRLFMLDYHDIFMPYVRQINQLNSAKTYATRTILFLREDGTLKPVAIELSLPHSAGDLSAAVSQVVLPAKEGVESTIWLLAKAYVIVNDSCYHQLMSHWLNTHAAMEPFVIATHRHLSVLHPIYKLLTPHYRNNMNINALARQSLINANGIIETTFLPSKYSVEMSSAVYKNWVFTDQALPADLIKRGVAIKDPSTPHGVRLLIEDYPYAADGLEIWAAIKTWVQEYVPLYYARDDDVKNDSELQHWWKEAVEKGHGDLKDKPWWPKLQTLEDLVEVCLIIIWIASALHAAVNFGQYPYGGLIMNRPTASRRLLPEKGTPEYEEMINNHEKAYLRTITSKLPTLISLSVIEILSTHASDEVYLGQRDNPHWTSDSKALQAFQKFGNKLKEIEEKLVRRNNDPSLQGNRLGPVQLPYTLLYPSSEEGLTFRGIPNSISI
- protocol description: Kinetic isotope effect (KIE) titration, SLO-1
- Format: biochemical, soybean
- condition context: SLO-1, 5 μM LA/D-LA, pH 9.2; read-out: KD from hyperbolic fit of KIE
pKd: −log10 of the molar value. Where a name gives a salt, the structure may show the parent alone.
attribute measured: pKd

[1] CCCCCCCC/C=C\CCCCCCCC(=O)O
[2] CCCCCCCC/C=C\CCCCCCCCOS(=O)(=O)O [OS, (Z)-9-octadecenyl sulfate]
In: Select one: 1 or 2 . Criterion: greater recorded pKd. In your reply, give the label of the chosen option.
Out: 2

====

- experimental target: SLO-1 (Glycine max, UniProt P08170)
- Construct: made in house
- protocol description: Steady state kinetics / inhibition studies, SLO-1
- Type: biochemical, soybean
- condition context: simulation Scheme 3, Eqs. 7 and 8; read-out: Kii (catalytic site), minimal value
- Protocol: Steady State Kinetics. Lipoxygenase rates were determined by following the formation of product at 234 nm (ε=25,000 M^−1cm^−1) with a Hewlett-Packard 8453 UV-vis spectrophotometer. […] Substrate solutions used in each experiment were measured for accurate LA concentration by quantitatively converting substrate to product using soybean lipoxygenase-1. Enzymatic rates were measured between 1-50 μM LA with 1-25 μM OS for SLO-1 and lower than 2 μM LA for 15-HLO. […]
Counter-ions that a name gives are not always drawn.
attribute measured: Ki

In: Report Ki for CCCCCCCC/C=C\CCCCCCCCOS(=O)(=O)O [OS, (Z)-9-octadecenyl sulfate] please.
Out: ≥ 100 µM

====

- experimental target: 15-HLO (Homo sapiens, UniProt P16050)
- Construct: made in house
- Sequence (P16050 1-662): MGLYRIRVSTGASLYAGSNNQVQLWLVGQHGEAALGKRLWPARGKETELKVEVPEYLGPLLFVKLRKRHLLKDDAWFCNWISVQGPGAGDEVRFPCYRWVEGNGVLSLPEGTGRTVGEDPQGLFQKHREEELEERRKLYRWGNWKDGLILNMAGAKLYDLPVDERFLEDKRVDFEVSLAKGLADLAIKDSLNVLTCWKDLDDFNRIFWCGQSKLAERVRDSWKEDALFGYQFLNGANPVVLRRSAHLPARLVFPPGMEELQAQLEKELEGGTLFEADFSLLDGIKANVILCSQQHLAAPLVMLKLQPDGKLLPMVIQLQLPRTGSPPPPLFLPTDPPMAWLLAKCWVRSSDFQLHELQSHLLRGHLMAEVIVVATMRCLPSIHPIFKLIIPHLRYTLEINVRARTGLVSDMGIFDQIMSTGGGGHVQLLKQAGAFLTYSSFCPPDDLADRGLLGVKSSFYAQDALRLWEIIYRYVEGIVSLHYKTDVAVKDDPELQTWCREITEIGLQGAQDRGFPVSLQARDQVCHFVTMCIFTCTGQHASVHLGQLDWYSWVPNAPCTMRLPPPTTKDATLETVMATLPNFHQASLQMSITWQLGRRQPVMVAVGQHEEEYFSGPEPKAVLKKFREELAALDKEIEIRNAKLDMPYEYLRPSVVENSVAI
- protocol description: Kinetic isotope effect (KIE) titration, 15-HLO
- Format: biochemical
- condition context: 5 μM LA/D-LA, pH 7.5, read-out: KD from hyperbolic fit of KIE
Counter-ions that a name gives are not always drawn.
attribute measured: pKd
# pKd is unitless: minus log10 of the molar concentration; print number only

In: Query: pKd; subject: CCCCCCCC/C=C\CCCCCCCCOS(=O)(=O)O [OS, (Z)-9-octadecenyl sulfate]
Out: 6.40

Data origin, for the record: patent US6479546B1
